Give measured GI50 for each item. Keep answers brief.
System: U-251
PROTOCOL: NCI tumour cell line growth inhibition, 48 h
Active and inactive are the calls of the source. Cut-off read from the data, not from the text of the source: active = GI50 up to about 1.1 µM and inactive = higher.

COC(=O)c1ccc(OCc2ccc3oc(=O)c(-c4ccccc4)nc3c2)cc1 :: > 100 µM (inactive)
COc1ccc2c(C=O)c3n(c(=O)c2c1OC)CCc1cc2c(cc1-3)OCO2 :: 40.6 µM (inactive)
O=C(NO)c1ccc(OCc2cccc(Cl)c2)cc1 :: 11.6 µM (inactive)

Parameters: items (list). Returns: GI50 for each item.
1. CC(C)C(Nc1c2ccccc2[n+]([O-])c2ccccc12)C(=O)O (centres undefined)
2. CSCCC(NC(=O)Cc1ccc(C(=O)c2ccccc2)cc1)C(=O)O (centres undefined)
3. COc1cc(-c2oc3c(OC)c(O)cc(O)c3c(=O)c2OC)ccc1O
4. Cc1ccc([Se](=C(C(=O)c2ccccc2)C(=O)c2ccccc2)c2ccc(C)cc2)cc1
5. CCN(CC)C(=O)COc1cc2c(O)c3c(O)c(C)c4c(c13)C(=O)C(C)(OC=CC(OC)C(C)C(OC(C)=O)C(C)C(O)C(C)C(O)C(C)C=CC=C(C)C(=O)N2)O4 (centres undefined)
6. CCOC(=O)c1cnccc1CC1(C#N)c2ccccc2C=CN1C(=O)c1ccccc1 (centres undefined)

**Result**
["> 100 µM (inactive)", "> 100 µM (inactive)", "3.66 µM (inactive)", "20.6 µM (inactive)", "> 100 µM (inactive)", "37.3 µM (inactive)"]
